growth reference
Test system: SF-539 CNS
Assay: NCI-60 one-dose screen, 48 h (100 = growth as untreated, 0 = no growth, -100 = all killed)
Settings: 10 µM
Protocol: Cells are grown in 96 well plates and exposed to the test compound for 48 hours. Compounds are tested at a single concentration, which is 10^-5 M for most compounds. The reported endpoint is percent growth (GI% or GIPRCNT), where numbers from 0 - 100% represent growth inhibition, and numbers from -100% - 0 represent cell death. For example, a value of 40 represents 60% growth inhibition. A value of 0 means no net growth occurred over the course of the experiment. […]
This is part of a sample that, as a whole, favours compounds with a hit. Of some 83,000 tested, about 20% had one in any assay.
Answer with a number only, understood to be in %.

Some entries whose results are on file:
Briefly, growth measured for O=C1Nc2ccc(Cl)cc2/C1=C/c1ccc(OCc2ccc(Br)cc2F)cc1 : 33.3

In plain terms, COc1ccc(N2N=C(c3ccc4c(c3)OCCO4)CC2c2cccc(NC(=O)CCCNS(=O)(=O)c3ccc(F)cc3)c2)cc1 (stereo not given) has a documented growth of 77.7

In plain terms, O=C(N/N=C/c1ccc(B(O)O)o1)c1[nH]c2ccc(Br)cc2c1-c1ccccc1 has a documented growth of -33.4

response.value for O=C(Cn1nc(-c2ccccc2)ccc1=O)NN1C(=O)c2ccccc2C1=O (field: growth) = 91.2

More entries:
The molecule listed as CN1CCc2c(sc3ncnc(N/N=C/c4cn(-c5ccccc5)nc4-c4ccc(Cl)cc4)c23)C1 shows growth equal to 7.13

* * *

Tested on: HT29 colon
Experiment: NCI-60 one-dose screen, 48 h (100 = growth as untreated, 0 = no growth, -100 = all killed)
Conditions: 10 µM
Experimental: Growth inhibition of the HT29 human tumor cell line is measured as a screen for anti-cancer activity. Cells are grown in 96 well plates and exposed to the test compound for 48 hours. Compounds are tested at a single concentration, which is 10^-5 M for most compounds. The reported endpoint is percent growth (GI% or GIPRCNT), where numbers from 0 - 100% represent growth inhibition, and numbers from -100% - 0 represent cell death. For example, a value of 40 represents 60% growth inhibition. […]
This is part of a sample that, as a whole, favours compounds with a hit. Of some 83,000 tested, about 20% had one in any assay.
Give YES when the value for growth is at least 20%. Give NO when it is less.

Worked examples follow.
(Q) Decide: is the reported value of growth for COc1cc(OC(F)(F)F)ccc1C(=O)Nc1sc2c(c1C#N)CCC(=O)C2 equal to or greater than 20%?
(A) YES

(Q) Exam item: decide whether the reported growth for CCOC(=O)C1=C(N)N(c2ccc(C)cc2)C2=C(C(=O)CC(C)(C)C2)C1c1ccccc1OC (stereo not given) is at least 20%.
(A) YES

(Q) Decide: is the reported value of growth for O=C(c1ccc(Cl)cc1)C1[C@H](c2ccccc2Br)[C@@H](c2ccccc2)NC12C(=O)Nc1ccc(Cl)cc12 (stereo not given in full) equal to or greater than 20%?
(A) NO

(Q) Quick check: does CC(=O)Nc1nc(-c2ccc(N3CCN(C)CC3)c(NS(=O)(=O)c3cccc4c(N(C)C)cccc34)c2)cs1 have growth greater than or equal to 20%?
(A) YES

(Q) Please check the record Cc1ccc(C(=O)NCCCNc2nc(Nc3ccc(N4CCN(C)CC4)cc3)nc3ccsc23)cc1 and state if its growth is at or above 20%.
(A) NO

Continue with the molecule presented below.
(Q) Exam item: decide whether the reported growth for CCCn1c(=O)c2[nH]c(-c3ccc(OCc4nc5ccccc5[nH]4)cc3)nc2n(CCC)c1=O is at least 20%.
(A) YES

* * *

Test system: PC-3 prostate
Assay: NCI-60 one-dose screen, 48 h (100 = growth as untreated, 0 = no growth, -100 = all killed)
Conditions: 10 µM
This is part of a sample that, as a whole, favours compounds with a hit. Of some 83,000 tested, about 20% had one in any assay.
The following compounds are shown together with reported growth values.
Field format: number, assumed %, no unit text.

Below, each entry is followed by its recorded growth result.
Please fill in: growth reported for COC[C@@H](CC(C)C)N=C1N/C(=C\c2ccc3ncsc3c2)C(=O)N1C = 23.6

The recorded growth for COc1ccc(CN2[C@@H](C(=O)NCc3ccc(C(=O)NO)cc3)Cc3c([nH]c4ccccc34)[C@@H]2C)cc1 is 29

The value of growth measured for the compound O/N=C(\CSc1nnc(-c2c[nH]c3ccccc23)n1-c1ccccc1)c1ccc(Cl)cc1 turned out to be -38

N#Cc1c(NC(=O)c2ccc(C(O)(C(F)(F)F)C(F)(F)F)cc2)sc2c1CCC(=O)C2 yielded growth of -44.8

compound COc1cnc2c(c1)C(=O)c1c-2n(CCCNC(C)C)c(=O)c2cc(OC)c(OC)cc12 , growth observed: 48.7

New cases:
Entry CN1C(=O)N(C)C2SC(N/N=C/c3ccccc3)=NC21 (centres undefined) , growth reported as 84.7

growth recorded for this compound, COC1CC(Cn2cc(COc3ccc4ccc(=O)oc4c3)nn2)C(OCc2ccccc2)C(OCc2ccccc2)C1OCc1ccccc1 (centres undefined) , is 92.7

// recorded growth for CCOC(=O)N/C(=C1/OCCN1C)[P+](c1ccccc1)(c1ccccc1)c1ccccc1 : 50.5

Field growth (entry O=C(c1ccc(O)cc1)C1[C@H](c2ccccc2Br)[C@@H](c2ccccc2)NC12C(=O)Nc1ccc(Br)cc12 (some centres undefined) ) reads 23.3

* * *

System: COLO 205 colon
Experiment: NCI-60 one-dose screen, 48 h (100 = growth as untreated, 0 = no growth, -100 = all killed)
Conditions: 10 µM
The panel holds about 83,000 compounds, 20% with a hit somewhere; the sample as a whole holds those more often.
Each entry below carries its reported growth.
Response body: numeric value in %, unit text excluded.

Summary for this compound, O=c1oc2ccccc2cc1-c1csc(N=Nc2c(O)[nH]c3ccc(Br)cc23)n1 : growth is 127

Query Cc1ccc(-c2nc(Nc3ccc(C)c(S(N)(=O)=O)c3)c3ccccc3n2)cc1 yields growth of 90.5

Kindly note the recorded growth for COc1ccc2c(c1)N=C(C(=O)O)/C2=C/c1sc(Nc2ccc(O)cc2)nc1O , which is 89.2

// O=C1CCC(N2Cc3c(C#CCCCNC(=O)c4ccc(NC(=O)[C@@H]5NC6(CCCCC6)[C@@]6(C(=O)Nc7cc(Cl)ccc76)[C@H]5c5cccc(Cl)c5F)cc4)cccc3C2=O)C(=O)N1 (stereo partly drawn) : growth value = 70.5

Entry COc1ccc2[nH]c(O)c(N=NC(=O)COc3ccc(NC(=O)Nc4ccc(Cl)cc4)cc3)c2c1 — recorded growth = -1.56

Continuing:
The compound listed as COc1ccc2nc(Cl)c(-c3cc(-c4ccccc4)nc(=O)[nH]3)cc2c1 has a reported growth of 92.9

Entry CCOC(=O)CNC(=O)CN(Cc1ccccc1)C(=O)[C@@]1(C)CCC[C@]2(C)[C@H]3CC4C(C(C)C)=C[C@]3(CC[C@H]21)[C@@H]1C(=O)CCC(=O)[C@H]41 , growth reported as 79.4

Just so you know, measured growth for Nc1nnc(-c2c[nH]c3ncccc23)c(-c2c[nH]c3ccc(Br)cc23)n1 came out at 66.9

Input O=c1[nH]c2ccccc2cc1CSc1ccc(Nc2nccc(-c3ccc4ccccc4c3)n2)cc1 . Output growth: 25.3

* * *

System: SK-OV-3 ovarian
Assay: NCI-60 one-dose screen, 48 h
Details: 10 µM
Experimental: Growth inhibition of the SK-OV-3 human tumor cell line is measured as a screen for anti-cancer activity. Cells are grown in 96 well plates and exposed to the test compound for 48 hours. Compounds are tested at a single concentration, which is 10^-5 M for most compounds. The reported endpoint is percent growth (GI% or GIPRCNT), where numbers from 0 - 100% represent growth inhibition, and numbers from -100% - 0 represent cell death. For example, a value of 40 represents 60% growth inhibition. […]
About 83,000 compounds went through this panel and 20% of them were active in at least one assay; those are over-represented in the sample as a whole. Active and inactive are the calls of the source. The calls were made as follows: active = growth percent below 10; inactive = the rest.
Classes to choose from: 1 (active), 0 (inactive)

(Q) For COc1ccc(C2N(c3ccc(Br)cc3)N=C(C(C)=O)N2[C@H]2[C@H](OC(C)=O)O[C@H](COC(C)=O)[C@@H](OC(C)=O)[C@@H]2OC(C)=O)cc1 (stereo partly drawn) , which call appears in the assay record?
(A) 0

(Q) Give the logged outcome of this assay for the following compound: COc1cc(C2CC(c3ccccc3)=Nc3c(N)nc(N)nc3N2)ccc1Oc1nc(Nc2ccc(F)cc2)nc(N(C)C)n1 (stereo not drawn)
(A) 0

* * *

Tested on: CAKI-1 renal
Assay: NCI-60 one-dose screen, 48 h (100 = growth as untreated, 0 = no growth, -100 = all killed)
Conditions: 10 µM
Compounds without any hit were thinned out: in the full panel of roughly 83,000, 20% have a hit.
Measured growth accompanies every entry in the list below.
Supply the numeric figure in %, leaving out any unit text.

The compound identified as CC(=O)c1ccc(Nc2nc(SC(C)C)nc(-c3ccccc3)c2C#N)cc1 registered its growth at 8.35

According to the records, this compound Cc1ccn2c(C(=O)c3ccccc3)cc(-c3cc(-c4ccc(N(C)C)cc4)c(C#N)c(N)n3)c2c1 displays growth of 52.7

Note to self: growth recorded for CCN1CCN(c2ccc(NC(=O)Nc3ccc(-c4cc(C(=O)NC)c5ncccc5n4)cc3)cc2C(F)(F)F)CC1 was -100

CN1CCN(c2ccc(C(=O)/C=C/c3ccc(OC(F)F)cc3)cc2)CC1 has a reported growth of 65.8
